TARGET SYSTEM: human A3AR (Homo sapiens)
Construct: expressed in transfected cells
ASSAY PROTOCOL: LOPAC library primary screen: single concentration (10 μM) inhibition of 25 nM CA200645 binding, PHERAstar FS
# reported % 25 nM CA200645 binding; entries follow
Answer format: numeric, % implied, no suffix.

The cases that follow already have their % 25 nM CA200645 binding on record.
{"columns": ["MOLECULE", "UNITS", "VALUE MEASURED"],
 "data": [
  ["CCN1/C(=C/C(C)=O)Sc2ccc(OC)cc21", "%", 77.3],
  ["C[C@]12CC[C@@H]3c4ccc(O)cc4CC[C@H]3[C@@H]1CC[C@@H]2O", "%", 87.8],
  ["Cc1ccc(-c2cc(C(F)(F)F)nn2-c2ccc(S(N)(=O)=O)cc2)cc1", "%", 72.6]
]}

Please report % 25 nM CA200645 binding with human A3AR (Homo sapiens) for item COc1ccc(CCN(C)CCCC(C#N)(c2cc(OC)c(OC)c(OC)c2)C(C)C)cc1OC.Cl (racemic) [(±)-Methoxyverapamil hydrochloride] .
97.3

---

TARGET SYSTEM: human A3AR (Homo sapiens)
Construct: expressed in transfected cells
Sequence (P0DMS8 1-318): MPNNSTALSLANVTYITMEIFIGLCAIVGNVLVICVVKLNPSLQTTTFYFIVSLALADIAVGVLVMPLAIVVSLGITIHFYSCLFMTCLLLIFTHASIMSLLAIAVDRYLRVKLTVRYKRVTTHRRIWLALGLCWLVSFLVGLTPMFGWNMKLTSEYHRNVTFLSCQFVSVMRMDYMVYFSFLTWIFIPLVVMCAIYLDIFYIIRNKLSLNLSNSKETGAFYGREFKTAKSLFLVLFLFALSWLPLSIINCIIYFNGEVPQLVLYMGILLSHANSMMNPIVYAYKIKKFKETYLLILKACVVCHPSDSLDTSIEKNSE
ASSAY PROTOCOL: LOPAC library primary screen: single concentration (10 μM) inhibition of 25 nM CA200645 binding, PHERAstar FS
Structures can show the parent of a compound that is named as a salt.
# reported % 25 nM CA200645 binding; entries follow
Answer format: numeric, % implied, no suffix.

{"columns": ["COMPOUND", "TARGET SYSTEM", "UNITS", "% 25 nM CA200645 binding"],
 "data": [
  ["CCOC(=O)C(C)Oc1cccc2c(=O)n(CC(=O)Nc3ccc4c(c3)OCCO4)ccc12 (centres unmarked) [SID7969543]", "human A3AR (Homo sapiens)", "%", 94.8],
  ["CC(C)N(CCC(C(N)=O)(c1ccccc1)c1ccccn1)C(C)C (centres unmarked) [Disopyramide]", "human A3AR (Homo sapiens)", "%", 78.9],
  ["O=C(O)c1cc(O)cc(C(=O)O)n1 [Chelidamic acid]", "human A3AR (Homo sapiens)", "%", 110.2],
  ["C=CCN1CC[C@]23CCCC[C@H]2[C@H]1Cc1ccc(O)cc13 [Levallorphan tartrate]", "human A3AR (Homo sapiens)", "%", 105.9],
  ["NC/C=C\\C(=O)O [cis-4-Aminocrotonic acid]", "human A3AR (Homo sapiens)", "%", 103.0]
]}

Give the reported value of % 25 nM CA200645 binding for this record: NCCc1c[nH]c2ccc(C(N)=O)cc12.O=C(O)/C=C\C(=O)O [5-Carboxamidotryptamine maleate]
85.7

Give the reported value of % 25 nM CA200645 binding for this record: CCN1CCC[C@H]1CNC(=O)c1cc(S(N)(=O)=O)ccc1OC [(-)-Sulpiride]
103.0

Give the reported value of % 25 nM CA200645 binding for this record: CCNc1nc2c(ncn2[C@H]2C[C@H](O)[C@@H](CO)O2)c(=O)[nH]1 [N2-Ethyl-2'-deoxyguanosine]
108.7

Give the reported value of % 25 nM CA200645 binding for this record: OCCN1CCN(CC/C=C2/c3ccccc3Sc3ccc(C(F)(F)F)cc32)CC1 [cis-(Z)-Flupenthixol dihydrochloride]
96.5

Give the reported value of % 25 nM CA200645 binding for this record: CCCN1C[C@H](CSC)C[C@@H]2c3cccc4[nH]cc(c34)C[C@H]21 [Pergolide methanesulfonate]
82.8

Give the reported value of % 25 nM CA200645 binding for this record: CP(=O)(O)C1=CCNCC1 [TPMPA]
99.7

Give the reported value of % 25 nM CA200645 binding for this record: Br.COc1ccccc1N1CCN(CCCCN2C(=O)c3ccccc3C2=O)CC1 [NAN-190 hydrobromide]
91.1

Give the reported value of % 25 nM CA200645 binding for this record: Clc1ccc(C(c2ccccc2Cl)C(Cl)Cl)cc1 (centres unmarked)
87.8

Give the reported value of % 25 nM CA200645 binding for this record: C=CCc1ccccc1OCC(O)CNC1(C)CCC(C(C)(C)NC(=O)CBr)CC1 (centres unmarked) [Bromoacetyl alprenolol menthane]
102.8

Give the reported value of % 25 nM CA200645 binding for this record: CC1(C)CCC=[N+]1[O-] [5,5-Dimethyl-1-pyrroline-N-oxide]
106.0

Give the reported value of % 25 nM CA200645 binding for this record: O=C(O)c1ccccc1Nc1ccccc1 [N-Phenylanthranilic acid]
95.2

Give the reported value of % 25 nM CA200645 binding for this record: NCCCC(=O)O [GABA]
95.6

Give the reported value of % 25 nM CA200645 binding for this record: NCCCCN=C(N)N [Agmatine sulfate]
97.6

Give the reported value of % 25 nM CA200645 binding for this record: O=C(CCCN1CC=C(n2c(=O)[nH]c3ccccc32)CC1)c1ccc(F)cc1 [Droperidol]
101.2

Give the reported value of % 25 nM CA200645 binding for this record: CN1[C@@H]2CC[C@H]1C[C@@H](OC(c1ccccc1)c1ccccc1N)C2 (some centres unmarked) [Aminobenztropine]
92.7

Give the reported value of % 25 nM CA200645 binding for this record: NC(CCCCCP(=O)(O)O)C(=O)O (racemic) [(±)-2-Amino-7-phosphonoheptanoic acid]
52.2

---

TARGET SYSTEM: human A3AR (Homo sapiens, UniProt P0DMS8)
Construct: expressed in transfected cells
ASSAY PROTOCOL: LOPAC library primary screen: single concentration (10 μM) inhibition of 25 nM CA200645 binding, PHERAstar FS
Counter-ions that a name gives are not always drawn.
OBSERVED PROPERTY: % 25 nM CA200645 binding (%)
Answer format: numeric, % implied, no suffix.

The cases that follow already have their % 25 nM CA200645 binding on record.
{"columns": ["COMPOUND", "% 25 nM CA200645 binding / %"],
 "data": [
  ["CCCCCCCCCCCCCCCCCCOCC(COP(=O)([O-])OCC[N+](C)(C)C)OC (stereo not drawn)", 80.6],
  ["C[C@@](Cc1ccc(O)c(O)c1)(NN)C(=O)O [S-(-)-Carbidopa]", 101.3],
  ["Cl.OC1CCCCC1N1CCC(c2ccccc2)CC1 (racemic) [(±)-Vesamicol hydrochloride]", 112.9],
  ["CCc1ccccc1OC[C@@H](O)CN[C@H]1CCCc2ccccc21.O=C(O)C(=O)O [SR 59230A oxalate]", 94.8],
  ["C[N+](C)(C)CC#CCOC(=O)Nc1cccc(Cl)c1.[Cl-]", 93.8]
]}

Please report % 25 nM CA200645 binding with human A3AR (Homo sapiens, UniProt P0DMS8) for item Cc1[nH]c2ccc(O)cc2c1CCN.O=C(O)/C=C\C(=O)O [2-Methyl-5-hydroxytryptamine maleate] .
104.7

Please report % 25 nM CA200645 binding with human A3AR (Homo sapiens, UniProt P0DMS8) for item Nc1ccn([C@@H]2O[C@H](CO)[C@@H](O)C2(F)F)c(=O)n1 [Gemcitabine hydrochloride] .
106.0

Please report % 25 nM CA200645 binding with human A3AR (Homo sapiens, UniProt P0DMS8) for item CCCN(CCC)C1Cc2cc(OC)c(OC)cc2C1.O=C(O)/C=C\C(=O)O [U-99194A maleate] .
101.3

Please report % 25 nM CA200645 binding with human A3AR (Homo sapiens, UniProt P0DMS8) for item CCCCCCCC/C=C\CCCCCCCC(=O)O .
98.9

Please report % 25 nM CA200645 binding with human A3AR (Homo sapiens, UniProt P0DMS8) for item CC(=O)[C@H]1CC[C@H]2[C@@H]3CC[C@H]4C[C@](C)(O)CC[C@]4(C)[C@H]3CC[C@]12C .
83.6

Please report % 25 nM CA200645 binding with human A3AR (Homo sapiens, UniProt P0DMS8) for item CNC[C@H](O)c1cccc(O)c1 [Phenylephrine hydrochloride] .
102.2

Please report % 25 nM CA200645 binding with human A3AR (Homo sapiens, UniProt P0DMS8) for item NS(=O)(=O)C#Cc1ccccc1 .
92.3

Please report % 25 nM CA200645 binding with human A3AR (Homo sapiens, UniProt P0DMS8) for item Cc1cc2c(cc1Cl)N(C(=O)Nc1ccc(Oc3cccnc3C)nc1)CC2.Cl.Cl.O [SB 242084 dihydrochloride hydrate] .
49.6
